Each entry below lists one item and its recorded MFI value.
# TARGET ENTITY: T1, human TMEM106B (human, UniProt Q9NUM4 2-274)
# T1 construct: full-length, transiently expressed on HEK293 cells, or natively expressed on HeLa, U251 and A549 cells (the cell is named under assay); also the source of the Pepscan peptides; also called huTMEM106B; huTMEM
# PROTOCOL TEXT: FACS A549 10 ug/ml
// note: answer is a bare numeric in MFI

// known answers, use as guide
BINDER: TM-32 (antibody, V domains shown) VH: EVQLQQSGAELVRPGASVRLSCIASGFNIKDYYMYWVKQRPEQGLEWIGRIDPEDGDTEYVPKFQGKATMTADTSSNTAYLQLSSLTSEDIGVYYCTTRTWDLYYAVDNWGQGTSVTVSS VL: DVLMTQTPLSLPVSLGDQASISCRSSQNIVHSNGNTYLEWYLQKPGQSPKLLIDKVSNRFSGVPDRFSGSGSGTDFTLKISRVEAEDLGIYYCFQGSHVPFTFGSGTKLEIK
MFI / MFI: 6100

BINDER: TM-28 (antibody, V domains shown) VH: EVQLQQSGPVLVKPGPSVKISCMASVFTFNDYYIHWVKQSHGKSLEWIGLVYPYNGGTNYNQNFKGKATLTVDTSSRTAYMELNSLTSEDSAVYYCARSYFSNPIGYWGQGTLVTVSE VL: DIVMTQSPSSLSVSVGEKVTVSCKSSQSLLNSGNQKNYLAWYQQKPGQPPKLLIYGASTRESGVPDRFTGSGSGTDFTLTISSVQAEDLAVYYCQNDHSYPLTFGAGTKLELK
MFI / MFI: 4350

Below: the item to evaluate.
What value of measured MFI is listed for TM-22 (antibody, V domains shown) VH: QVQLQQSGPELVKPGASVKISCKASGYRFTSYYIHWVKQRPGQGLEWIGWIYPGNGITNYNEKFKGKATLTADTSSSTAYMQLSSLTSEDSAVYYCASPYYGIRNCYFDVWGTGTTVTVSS VL: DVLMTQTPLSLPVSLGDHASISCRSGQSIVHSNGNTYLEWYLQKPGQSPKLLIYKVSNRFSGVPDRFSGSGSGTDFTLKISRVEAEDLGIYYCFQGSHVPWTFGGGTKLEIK ?
478
